This collection of values is drawn from the supplement of paper PMC10567573.

B1: P2RY14 (parent)
chain: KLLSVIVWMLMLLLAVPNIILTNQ

- Variants of: B1
- Measurement Description: protein stability index of a GFP-peptide fusion (GPS, HEK-293T) (PSI 1-6); higher = more stable;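 also: lentivirally expressed fusions sorted by FACS into six bins by GFP to DsRed ratio, PSI derived from sequencing read proportions per bin multiplied by bin number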
- Measurement Conditions: c terminus: a fixed tail appended
Measured Property: protein stability index

Mutation Notation | Result Number
K1Y | 3.13
T22K | 3.2
V5A | 3.26
V16P | 2.75
L13H | 4.28
V16T | 2.01
Q24V | 1.96
Q24K | 2.6
S4K | 5.66
A15N | 3.1
M9Q | 3.1
I20C | 1.86
L3F | 3.42
N18G | 3.62
N18R | 1.49
W8K | 3.73
L21N | 2.28
P17N | 2.08
N18W | 1.92
L14D | 3.07
P17E | 3
L21A | 3.89
